Reference for the values: the supplement of paper PMC11451515

# key: entry, value: cell viability
test system: P12-Ichikawa; assay: cell viability relative to DMSO control; higher = less cytotoxic; conditions: RPMI 5 mM glucose + 10% dialyzed FBS; 48 h; 0.569 µM
reported-endpoint: cell viability (%)

> print(dat)
                                   compound  tested.system  unit.name  recorded.result
1  O=C1CCCC(=O)C1C(=O)c1ccc(C(F)(F)F)cc1[N+](=O)[O-]   P12-Ichikawa          %              108
2                         NCCc1ccc(O)c(O)c1   P12-Ichikawa          %              129
3  OC[C@H]1OC(OC2=CC3=C(C(=C2)O)C(=O)\C(=C/O3)C4=CC=C(O)C=C4)[C@H](O)[C@@H](O)[C@@H]1O (stereo not given in full)   P12-Ichikawa          %             69.3
4  O=C(NCC1CCOCC1)c1cnc(Nc2ccc(Cl)cc2Cl)nc1C(F)(F)F   P12-Ichikawa          %              120
5   C[C@H](NCc1ccc(OCc2cccc(F)c2)cc1)C(N)=O   P12-Ichikawa          %              117

###

system: P12-Ichikawa; assay: cell viability relative to DMSO control; higher = less cytotoxic; conditions: RPMI 5 mM glucose + 10% FBS; 48 h; 0.569 µM
cell viability under 80% gets Yes, anything at or over 80% gets No.

compound	category-label
Cc1cnc(Nc2ccc(CN3CCOCC3)cc2)nc1Nc1cccc([S+](=O)([O-])NC(C)(C)C)c1	Yes
CO[C@@H]1[C@@H](O)[C@H](O)[C@@H](n2c3c(Cl)cccc3c3c4c(c5c6cccc(Cl)c6[nH]c5c32)C(=O)NC4=O)O[C@H]1CO	Yes
OCCN(CCO)c1nc(N2CCCCC2)c2nc(N(CCO)CCO)nc(N3CCCCC3)c2n1	No
CC[C@H]1CN2CCc3cc(OC)c(OC)cc3[C@@H]2C[C@@H]1C[C@H]1NCCc2cc(OC)c(OC)cc21	Yes
CCC(C1CCC(C)C(O1)C(C)C(O)C(C)C(=O)C(CC)C2OC\3(O[C@]4(CC[C@@](C)(O4)C5CC[C@@](O)(CC)C(C)O5)C(O)\C=C3)C(C)CC2C)C([O-])=O (some centres undefined)	No
Cc1cnc(Nc2ccc(N3CCN(C)CC3)cc2)nc1Nc1cccc([S+](=O)([O-])NC(C)(C)C)c1	No
O=C1CCCC(=O)C1C(=O)c1ccc(C(F)(F)F)cc1[N+](=O)[O-]	No
N#Cc1ccc(NC(=O)Nc2ccccc2Br)c2nn[nH]c12	No
COc1ccc([S+](=O)([O-])Nc2cccnc2Nc2ccc(O)cc2)cc1	No
Nc1nc(N)c(N=O)c(OCC2CCCCC2)n1	No
CC[C@@H]1C(=O)N(C)c2cnc(Nc3ccc(C(=O)NC4CCN(C)CC4)cc3OC)nc2N1C1CCCC1	Yes
CC(C)(O)C(=O)Nc1ccc([N+](=O)[O-])c(C(F)(F)F)c1	No
CCCCCN(CCC12CC3CC(CC(C3)C1)C2)C(=O)NCCCc1ccncc1	No
N#CC[C@H](C1CCCC1)n1cc(-c2ncnc3[nH]ccc23)cn1	No
CCOCC(O)COc1ccc(NC(=O)CC[S+](C)C)cc1 (centres undefined)	No
N=C(N)NC(=N)N1CCOCC1	No
CC(C)(C)OC(=O)Nc1ccc(-c2cc(C(=O)NCCCCCCC(=O)NO)no2)cc1	No
CC(C)c1c(C(=O)Nc2ccccc2)c(-c2ccccc2)c(-c2ccc(F)cc2)n1CC[C@@H](O)C[C@@H](O)CC(=O)[O-]	No
N=C(N)Nc1ccc(C(=O)Oc2ccc3cc(C(=N)N)ccc3c2)cc1	No
Cc1nc(N)ncc1-c1nc(N2CCOCC2)c2sc(C(C)(C)O)cc2n1	Yes
C1CN\2C[C@@H](\N=C2S1)C3=CC=CC=C3	No
N#C/C(=C1/Nc2ccccc2S1)c1ccnc(OCc2ccc(CN3CCOCC3)cc2)n1	No
C[C@H](NCc1ccc(OCc2cccc(F)c2)cc1)C(N)=O	No
Oc1ccc([C@@H]2Oc3ccc(O)cc3[C@@H]3CCC[C@@H]32)cc1	No
CC(S)C(=O)NCC(=O)O (centres undefined)	No
CCOC(=O)O[C@]1(C(=O)OCCl)CC[C@H]2[C@@H]3CCC4=CC(=O)C=C[C@]4(C)[C@H]3[C@@H](O)C[C@@]21C	No
C1COC(NC(C2CC2)C2CC2)=N1	No
COc1cc2ncnc(Nc3cccc(Cl)c3)c2cc1OC	Yes
CN(C(Cc1ccc(O[S+](=O)([O-])c2cccc3cnccc23)cc1)C(=O)N1CCN(c2ccccc2)CC1)[S+](=O)([O-])c1cccc2cnccc12 (centres undefined)	No
